B1: Transitional endoplasmic reticulum ATPase, residues 26 to 106; numbered along this chain, P55072 (parent)
chain: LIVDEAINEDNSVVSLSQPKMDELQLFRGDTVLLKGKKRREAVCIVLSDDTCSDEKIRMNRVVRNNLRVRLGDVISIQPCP

- Variants of: B1
- Measurement Notes: abundance fitness (aPCA) (normalised: wild type 0, dead -1); higher = more abundant; growth selection in yeast, the domain comes from the species named
- Run Conditions: Homo sapiens
Each record's class is read off its abundance fitness using these ranges: lo (below -0.08), med (-0.08 to below 0.03), hi (0.03 or more)

Any idea which band K38T is in?
hi

Any idea which band V63A is in?
hi

Any idea which band P19A is in?
med

Any idea which band I2Y is in?
lo

Any idea which band R40N is in?
med

Any idea which band R70M is in?
med

Any idea which band D22F is in?
lo

Any idea which band K35S is in?
hi

Any idea which band V62C is in?
med

// provenance: the Human Domainome abundance scans (Beltran et al. 2025)
